FYI, the data here is from the supplement of paper PMC13380429.

tested on: HepG2; test: cell viability relative to DMSO; higher = less toxic; conditions: 72 h; 1000 nM
Field: cell viability. Provide a value for each of the molecules that follow.
One number for each entry, in %.

# Molecule, cell viability / %
measured = [
    ("NCC(=O)CCC(=O)O [5-aminolevulinic-acid]", 104),
]

Each molecule below has a recorded value; state its cell viability.
1. CC1(C)Oc2ccc(C#N)cc2[C@@H](N2CCCC2=O)[C@@H]1O [levcromakalim]
2. C[C@@H](NC(=O)[C@@H](N)Cc1ccc(O)cc1)C(=O)NCC(=O)N(C)[C@@H](Cc1ccccc1)C(=O)N[C@H](CO)CC[S+](C)[O-] (stereo partly drawn) [FK-33-824]
3. CCCc1nc2c(C)cc(-c3nc4ccccc4n3C)cc2n1Cc1ccc(-c2ccccc2C(=O)O)cc1 [telmisartan]

Response line:
1. 101
2. 101
3. 99.8

Each molecule below has a recorded value; state its cell viability.
1. NC(=O)NO [hydroxyurea]
2. O[C@@H](CN1CCNCC1)Cn1c2ccc(Br)cc2c2cc(Br)ccc21 [BAX-channel-blocker]
3. O[C@@H](CN1CCC(Cc2ccc(F)cc2)CC1)c1ccc(Cl)cc1 (racemic) [eliprodil]
4. COC(=O)[C@]12CCC(C)(C)C[C@H]1[C@H]1C(=O)C=C3[C@@]4(C)C=C(C#N)C(=O)C(C)(C)[C@@H]4CC[C@@]3(C)[C@]1(C)CC2 [Bardoxolone Methyl]
5. CCOc1cccc(NC(=O)c2ccc(N3CCCC3)c(C(F)(F)F)c2)c1 [EPPTB]

Response line:
115
95
87.6
4
91.5

Each molecule below has a recorded value; state its cell viability.
1. NCCS(=O)(=O)O [taurine]
2. O=C(COc1ccc(C(=O)c2ccccc2)cc1)NC1CCN(Cc2ccccc2)CC1 [adiporon]
3. O=S(=O)(O)c1cc(I)c(O)c2ncccc12 [chiniofon]
4. C[n+]1cccc(C(=O)[O-])c1 [trigonelline]
5. Cc1ccc(-c2nn(C(C)(C)C)c3ncnc(N)c23)cc1 [PP-1]
6. Cc1c(Cl)c(C)[n+]([O-])c(Cl)c1-c1noc(-c2cc(O)c(O)c([N+](=O)[O-])c2)n1 [opicapone]
7. COC1=C[C@@H]2[C@@H]3Cc4ccc(OC)c(O)c4[C@]2(CCN3C)CC1=O [sinomenine]

Response line:
[102, 107, 102, 82.9, 89.3, 88.1, 88.5]

Each molecule below has a recorded value; state its cell viability.
1. CNC(=S)C1(c2ccccn2)CCCS1 (stereo not drawn) [picartamide]
2. CC(C)(C)C(=O)C(Oc1ccc(Cl)cc1)n1ccnc1 (stereo not drawn) [climbazole]
3. CC(C)C[C@H](NC(=O)N1CCCCCC1)C(=O)N[C@H](Cc1cn(C)c2ccccc12)C(=O)N[C@H](Cc1ccccn1)C(=O)O
4. O=C(O)CC(S)C(=O)O (stereo not drawn) [mercaptosuccinic-acid]
5. CC1(C)CN(C(=O)c2ccc(-c3cccc4nc(NC(=O)C5CC5)nn34)cc2)C1 [solcitinib]

Response line:
[99.6, 107, 101, 96.3, 98.4]

====

system: Vero E6; assay: drug sensitivity score (DSS) for viability; higher = more toxic; extreme values may be limits of the assay; settings: 72 h
Parameter Measured: drug sensitivity score
Numbers only.

Would you please look over these solved cases?
# Compound, Assay Target, Reading
data = [
    ("CCCC(=O)N1CCCN(c2nc(N)c3cc(OC)c(OC)cc3n2)CC1", "Vero E6", 0),
    ("O=C1NC(=O)c2cc(Nc3ccccc3)c(Nc3ccccc3)cc21", "Vero E6", 0.3),
    ("CCC1(c2ccccc2)C(=O)NCNC1=O", "Vero E6", 0),
    ("COc1ccc([C@@H]2CC(=O)c3c(O)cc(O[C@@H]4O[C@H](CO)[C@@H](O)[C@H](O)[C@H]4O[C@@H]4O[C@@H](C)[C@H](O)[C@@H](O)[C@H]4O)cc3O2)cc1O", "Vero E6", 0),
]

Each compound below has a recorded value; state its drug sensitivity score.
1. CC(C)(N)c1cc(C(=O)N[C@@H]2CCc3ccc(Oc4ccnc5c4CCC(=O)N5)cc3C2)cc(C(F)(F)F)c1
2. O=C(O)CC(S)C(=O)O (stereo not drawn)
3. C[C@H]1[C@H](OC(=O)CCC(=O)O)O[C@@H]2O[C@@]3(C)CC[C@H]4[C@H](C)CC[C@@H]1[C@@]24OO3 [artesunate]
4. CC(C)=CCc1c(O)cc(O)c2c(=O)c(O)c(-c3ccc(C(F)(F)F)cc3)oc12

Response line:
[3.8, 0, 1.6, 3.8]
